Test system: MOLT-4 leukemia
Experimental protocol: NCI-60 one-dose screen, 48 h (100 = growth as untreated, 0 = no growth, -100 = all killed)
Run conditions: 10 µM unless noted
The panel holds about 83,000 compounds, 20% with a hit somewhere; the sample as a whole holds those more often.
Property label: growth (%)
Reply numerically in %, unit not repeated.

Compound | Experimental target | Unit abbrev | Measured
Cc1nccc2c3ccc(OCc4cn(-c5ccc(Cl)cc5)nn4)cc3n(CCCc3ccccc3)c12 | MOLT-4 leukemia | % | 18.2
CC(Oc1ccc(C(=O)NS(=O)(=O)C(C)(C)C)cc1C(F)(F)F)c1ccc(Oc2ccccc2)cn1 (configuration not stated) | MOLT-4 leukemia | % | 98.5
CCC1(CC)NC(=O)c2c(c3ccc(Cl)c(Cl)c3n2C)C1C#N (configuration not stated) | MOLT-4 leukemia | % | 4.72
COc1ccc(Cc2nc3cc(OC)c(OC)cc3c(=O)[nH]2)cc1 | MOLT-4 leukemia | % | 80.7
COc1ccc(-c2nc(SC(C)C)nc(NNC(N)=O)c2C#N)cc1 | MOLT-4 leukemia | % | 78.6

Task: growth lookup needed for COc1cc(OC)c(/C=C/C(=O)c2ccc(Nc3ncnc4ccccc34)cc2)c(OC)c1 , thanks.
Output: 12.7

Task: growth lookup needed for c1ccc(Cn2nc3c(c2-c2ccccc2)-c2oncc2CC3)cc1 , thanks.
Output: 79.8

Task: growth lookup needed for CC(C)(C)CC(C)(C)Nc1c(-c2ccc3c(c2)OCO3)nc2cnccn12 , thanks.
Output: 69.4

Task: growth lookup needed for COc1ccc(Nn2c(SCC(=O)Nc3nc(-c4ccc(Cl)cc4)cs3)nc(C)c2C)cc1 , thanks.
Output: 36.1

Task: growth lookup needed for CC(O)(CO)c1ccccc1 (configuration not stated) , thanks.
Output: 110

Task: growth lookup needed for CS(=O)(=O)OCCN(CCOS(C)(=O)=O)c1ccc(/C=N/Nc2ccc([N+](=O)[O-])cc2[N+](=O)[O-])cc1 , thanks.
Output: 88.4

Task: growth lookup needed for Cn1c(=O)c2[nH]c(CCCc3nc4c([nH]3)c(=O)n(C)c(=O)n4C)nc2n(C)c1=O , thanks.
Output: 136

* * *

Collected growth values appear next to each entry.
Test system: UACC-257 melanoma
Experimental protocol: NCI-60 one-dose screen, 48 h (100 = growth as untreated, 0 = no growth, -100 = all killed)
Run conditions: 10 µM unless noted
This is part of a sample that, as a whole, favours compounds with a hit. Of some 83,000 tested, about 20% had one in any assay.
Reply numerically in %, unit not repeated.

Illustrative cases are given below, each with its answer.
Molecule | growth (%)
COc1ccc(OC)c(/C=C/[C@H]2O[C@@H](C)[C@H](O)[C@@H]2O)c1 | 104
O=C(Nc1ccc2cc3ccc(NC(=O)NC4CCCCC4)cc3nc2c1)NC1CCCCC1 | 99.8
COc1ccc(C2=NN(C(C)=O)C(c3cn(Cc4ccc(Cl)cc4)c4ccccc34)C2)cc1 (stereo unspecified) | 81.7

Task: growth lookup needed for O=C(Nc1nc(-c2ccc(Br)cc2)cs1)c1cc(-c2ccc(Br)cc2)nc2ccc(Cl)cc12 , thanks.
Output: 101

Task: growth lookup needed for Clc1ccc(C2CC(c3cccc(Nc4ccncc4)c3)=NN2c2ccccc2)cc1 (stereo unspecified) , thanks.
Output: 34.5

Task: growth lookup needed for CC(=O)O[C@H]1CC[C@@]2(C)[C@@H](CC[C@@H]3[C@@H]2CC[C@@]2(C)[C@H]3CC[C@]2(O)C(C)=O)C1 , thanks.
Output: 109
